- measured_target: LNX1_1, Q8TBB1
- Sequence (Q8TBB1 261-371): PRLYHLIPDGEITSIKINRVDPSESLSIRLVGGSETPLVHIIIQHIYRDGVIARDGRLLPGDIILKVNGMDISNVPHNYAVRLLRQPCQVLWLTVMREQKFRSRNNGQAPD
- test_summary: holdup assay
- Set-up: key: below the threshold = too weak to quantify, mostly under pKd 3.1 to 4
- study_conditions: plain residues with an end cap or a label only (N-terminal biotin on a linker: ado-ado)
# pKd >= 4 gives satisfied, anything below gives not satisfied

Q) hey, is pKd for this one >= 4? QSYPSKHDYV [CLDN18, P56856]
A) not satisfied

Q) Could you verify whether the entry TGLWKHETTV [ADGRA3, Q8IWK6] shows pKd of no less than 4?
A) not satisfied

Q) Exam item: decide whether the reported pKd for NIAESLESLV [PTPRZ1, P23471] is at least 4.
A) satisfied

Q) I'd appreciate it if you could say whether DDASLPVSDV [PLEKHA1, Q9HB21] has pKd at least equal to 4.
A) satisfied

Q) Is the recorded value of pKd equal to or greater than 4 for this binder? AAVENKVTDL [PLXNB1, O43157]
A) satisfied

Q) Kindly determine if pKd recorded for SLNANEVEWF [RNF130, Q86XS8] is above or exactly 4.
A) not satisfied

Q) Is it the case that ARGPPRESEV [FAM110D, Q8TAY7] has pKd reaching or exceeding 4?
A) not satisfied
